Tested on: VA-ES-BJ tumor spheroid viability
Test: Anticancer human tumor VA-ES-BJ cell line growth inhibition
Details: second compound 10 µM; first compound 0.316 µM; hits give low values; spheroids with HUVEC and MSC
Procedure: Multicellular complex tumor spheroid response to DNA repair inhibitors in combination with DNA-damaging drugs This study explores the anticancer activities of DNA-damaging drugs and inhibitors of DNA damage repair, both as single agents and in combinations. […] Twenty-six patient-derived or established malignant cell lines were evaluated representing sarcoma, melanoma, small cell lung cancer (SCLC), non-small cell lung cancer (NSCLC), as well as bladder, ovarian and pancreatic cancers. […]
Attribute: viability, T/C

{"compound": "COc1cc(C)[nH]c(=O)c1CN1CCc2c(Cl)cc(C(OC)C3COC3)c(Cl)c2C1=O (stereo unspecified) + Cn1nnc2c(C(N)=O)ncn2c1=O", "unit.annotation": "%", "viability, T/C": 71.6}
{"compound": "COc1ccc([C@@H](O)c2cc(-c3ncnc4cc(N5CCOCC5)ccc34)c(F)cc2Cl)nn1 + Cn1nnc2c(C(N)=O)ncn2c1=O", "unit.annotation": "%", "viability, T/C": 63.5}
{"compound": "CC(C)n1c(=O)n(C)c2cnc3cc(F)c(-c4ccc(OCCCN5CCCCC5)nc4)cc3c21 + Cn1nnc2c(C(N)=O)ncn2c1=O", "unit.annotation": "%", "viability, T/C": 88}
{"compound": "CC1COCCN1c1cc(-c2ccnn2C)c2ccnc(-c3ccn[nH]3)c2n1 (stereo unspecified) + Cn1nnc2c(C(N)=O)ncn2c1=O", "unit.annotation": "%", "viability, T/C": 26.4}
{"compound": "[2H]c1nc(C)nc([2H])c1-c1cc(NC[C@@H](C)c2cccc3c(C(=O)NC)ccnc23)ncn1 + Cn1nnc2c(C(N)=O)ncn2c1=O", "unit.annotation": "%", "viability, T/C": 97.5}
{"compound": "Cc1cc(C)c(CNC(=O)c2cc(-c3ccc(CN4CCOCC4)cc3)cc3c2cnn3C2CCCC2)c(=O)[nH]1 + Cn1nnc2c(C(N)=O)ncn2c1=O", "unit.annotation": "%", "viability, T/C": 101}

---

Attribute: viability, T/C
Test system: VA-ES-BJ tumor spheroid viability
Assay: Anticancer human tumor VA-ES-BJ cell line growth inhibition;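 note: spheroids exposed to compounds for seven days; percent of DMSO vehicle control viability so 100% = untreated growth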
Conditions: second compound 0.0003 µM; first compound 10 µM; hits give low values; spheroids with HUVEC and MSC

{"compound": "COc1ccc([C@@H](O)c2cc(-c3ncnc4cc(N5CCOCC5)ccc34)c(F)cc2Cl)nn1 + COc1cc2c(cc1O)CCNC21CSC2c3c(OC(C)=O)c(C)c4c(c3C(COC1=O)N1C(O)C3Cc5cc(C)c(OC)c(O)c5C(C21)N3C)OCO4", "target.of.assay": "VA-ES-BJ tumor spheroid viability", "unit.annotation": "%", "viability, T/C": 0.36}
{"compound": "COc1cc(C)[nH]c(=O)c1CN1CCc2c(Cl)cc(C(OC)C3COC3)c(Cl)c2C1=O (stereo unspecified) + COc1cc2c(cc1O)CCNC21CSC2c3c(OC(C)=O)c(C)c4c(c3C(COC1=O)N1C(O)C3Cc5cc(C)c(OC)c(O)c5C(C21)N3C)OCO4", "target.of.assay": "VA-ES-BJ tumor spheroid viability", "unit.annotation": "%", "viability, T/C": 29.4}
{"compound": "[2H]c1nc(C)nc([2H])c1-c1cc(NC[C@@H](C)c2cccc3c(C(=O)NC)ccnc23)ncn1 + COc1cc2c(cc1O)CCNC21CSC2c3c(OC(C)=O)c(C)c4c(c3C(COC1=O)N1C(O)C3Cc5cc(C)c(OC)c(O)c5C(C21)N3C)OCO4", "target.of.assay": "VA-ES-BJ tumor spheroid viability", "unit.annotation": "%", "viability, T/C": 38.4}
{"compound": "CC1COCCN1c1cc(-c2ccnn2C)c2ccnc(-c3ccn[nH]3)c2n1 (stereo unspecified) + COc1cc2c(cc1O)CCNC21CSC2c3c(OC(C)=O)c(C)c4c(c3C(COC1=O)N1C(O)C3Cc5cc(C)c(OC)c(O)c5C(C21)N3C)OCO4", "target.of.assay": "VA-ES-BJ tumor spheroid viability", "unit.annotation": "%", "viability, T/C": 5.04}
{"compound": "CC(C)n1c(=O)n(C)c2cnc3cc(F)c(-c4ccc(OCCCN5CCCCC5)nc4)cc3c21 + COc1cc2c(cc1O)CCNC21CSC2c3c(OC(C)=O)c(C)c4c(c3C(COC1=O)N1C(O)C3Cc5cc(C)c(OC)c(O)c5C(C21)N3C)OCO4", "target.of.assay": "VA-ES-BJ tumor spheroid viability", "unit.annotation": "%", "viability, T/C": 13.2}
{"compound": "Cc1cc(C)c(CNC(=O)c2cc(-c3ccc(CN4CCOCC4)cc3)cc3c2cnn3C2CCCC2)c(=O)[nH]1 + COc1cc2c(cc1O)CCNC21CSC2c3c(OC(C)=O)c(C)c4c(c3C(COC1=O)N1C(O)C3Cc5cc(C)c(OC)c(O)c5C(C21)N3C)OCO4", "target.of.assay": "VA-ES-BJ tumor spheroid viability", "unit.annotation": "%", "viability, T/C": 32.6}

---

Attribute: viability, T/C
Tested on: VA-ES-BJ tumor spheroid viability
Experiment: Anticancer human tumor VA-ES-BJ cell line growth inhibition;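 note: spheroids exposed to compounds for seven days; percent of DMSO vehicle control viability so 100% = untreated growth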
Details: second compound 0.0003 µM; first compound 0.1 µM; hits give low values; spheroids with HUVEC and MSC

{"compound": "CC1COCCN1c1cc(-c2ccnn2C)c2ccnc(-c3ccn[nH]3)c2n1 (configuration not stated) + COc1cc2c(cc1O)CCNC21CSC2c3c(OC(C)=O)c(C)c4c(c3C(COC1=O)N1C(O)C3Cc5cc(C)c(OC)c(O)c5C(C21)N3C)OCO4", "target.of.assay": "VA-ES-BJ tumor spheroid viability", "viability, T/C, %": 12}
{"compound": "COc1ccc([C@@H](O)c2cc(-c3ncnc4cc(N5CCOCC5)ccc34)c(F)cc2Cl)nn1 + COc1cc2c(cc1O)CCNC21CSC2c3c(OC(C)=O)c(C)c4c(c3C(COC1=O)N1C(O)C3Cc5cc(C)c(OC)c(O)c5C(C21)N3C)OCO4", "target.of.assay": "VA-ES-BJ tumor spheroid viability", "viability, T/C, %": 51.3}

---

Test system: VA-ES-BJ tumor spheroid viability
Assay: Anticancer human tumor VA-ES-BJ cell line growth inhibition;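 note: spheroids exposed to compounds for seven days; percent of DMSO vehicle control viability so 100% = untreated growth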
Settings: second compound 10 µM; first compound 0.3 µM; hits give low values; spheroids with HUVEC and MSC
Attribute: viability, T/C
property.label: viability, T/C (%)

{"compound": "Cn1ncnc1[C@H]1c2n[nH]c(=O)c3cc(F)cc(c23)N[C@@H]1c1ccc(F)cc1 + Cn1nnc2c(C(N)=O)ncn2c1=O", "value.measured": 26.3}
{"compound": "Cc1sc2c(c1C)C(c1ccc(Cl)cc1)=NC(CC(=O)Nc1ccc(O)cc1)c1nnc(C)n1-2 (centres undefined) + Cn1nnc2c(C(N)=O)ncn2c1=O", "value.measured": 30.8}
{"compound": "CNCc1ccc(-c2cc(-c3nc(-c4ccc(S(=O)(=O)C(C)C)cc4)cnc3N)on2)cc1 + Cn1nnc2c(C(N)=O)ncn2c1=O", "value.measured": 56.1}
{"compound": "O=C(c1cc(Cc2n[nH]c(=O)c3ccccc23)ccc1F)N1CCN(C(=O)C2CC2)CC1 + Cn1nnc2c(C(N)=O)ncn2c1=O", "value.measured": 113}

---

Attribute: viability, T/C
System: VA-ES-BJ tumor spheroid viability
Test: Anticancer human tumor VA-ES-BJ cell line growth inhibition;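 note: spheroids exposed to compounds for seven days; percent of DMSO vehicle control viability so 100% = untreated growth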
Conditions: second compound 0.3 µM; first compound 0.949 µM; hits give low values; spheroids with HUVEC and MSC
property.label: viability, T/C

{"compound": "O=C(c1cc(Cc2n[nH]c(=O)c3ccccc23)ccc1F)N1CCN(C(=O)C2CC2)CC1 + CC[C@@]1(O)C(=O)OCc2c1cc1n(c2=O)Cc2cc3c(CN(C)C)c(O)ccc3nc2-1", "property.label": "viability, T/C", "value.measured": "8.29%"}
{"compound": "Cn1ncnc1[C@H]1c2n[nH]c(=O)c3cc(F)cc(c23)N[C@@H]1c1ccc(F)cc1 + CC[C@@]1(O)C(=O)OCc2c1cc1n(c2=O)Cc2cc3c(CN(C)C)c(O)ccc3nc2-1", "property.label": "viability, T/C", "value.measured": "8.91%"}
{"compound": "Cc1sc2c(c1C)C(c1ccc(Cl)cc1)=NC(CC(=O)Nc1ccc(O)cc1)c1nnc(C)n1-2 (centres undefined) + CC[C@@]1(O)C(=O)OCc2c1cc1n(c2=O)Cc2cc3c(CN(C)C)c(O)ccc3nc2-1", "property.label": "viability, T/C", "value.measured": "4.55%"}
{"compound": "CNCc1ccc(-c2cc(-c3nc(-c4ccc(S(=O)(=O)C(C)C)cc4)cnc3N)on2)cc1 + CC[C@@]1(O)C(=O)OCc2c1cc1n(c2=O)Cc2cc3c(CN(C)C)c(O)ccc3nc2-1", "property.label": "viability, T/C", "value.measured": "4.31%"}

Values from PubChem BioAssay AID1845217
